# testedSystem: AC8-Nt/CaM (Homo sapiens, UniProt P0DP23)
# Construct: made in house; host or cells: E. coli BL21-CodonPlus (DE3)-RIPL
# testProtocol: AC8-Nt/CaM FP counterscreen assay;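 further: fluorescence polarization of AC peptide binding GST-CaM in HEPES buffer with CaCl2, compound preincubated with CaM 30 min, peptide read after 2 h at room temperature in dark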
# Type: binding
# particulars: Cheng-Prusoff from FP IC50 and Kd; n/i given where none
Counter-ions that a name gives are not always drawn.
Listed here: items and their measured Ki.
Reply numerically in µM, unit not repeated.

INSERT INTO results (compound, obsvalue) VALUES
  ('CCCCC(CC)CNC(=N)NC(=N)NCCCCCCNC(=N)NC(=N)NCC(CC)CCCC (stereo not shown)', 1.1),
  ('CCC(C)CC(C)CCCCCCCCC(=O)NC1CC(O)C(NCCN)NC(=O)C2C(O)CCN2C(=O)C(C(O)CCN)NC(=O)C(C(O)C(O)c2ccc(O)cc2)NC(=O)C2CC(O)CN2C(=O)C(C(C)O)NC1=O (stereo not shown) [Compound 5, Caspofungin Acetate]', 6.3),
  ('[H]/N=C(\N/C(=N/[H])NCCCCCCNC(=N)NC(=N)Nc1ccc(Cl)cc1)Nc1ccc(Cl)cc1 [Compound 9, Chlorhexidine HCl]', 13.8),
  ('Cc1cc2nc3ccc(N(C)C)cc3[s+]c2cc1N [Compound 1, Tolonium Chloride]', 2.3),
  ('CCCCCCCCCCCCCCCC[N+](C)(C)CCN(Cc1ccc(OC)cc1)c1ncccn1', 2.7);

Request - read-out Ki | tested on AC8-Nt/CaM (Homo sapiens, UniProt P0DP23) | compound O=C1c2c(O)ccc(O)c2C(=O)c2c(NCCNCCO)ccc(NCCNCCO)c21 [Compound 11, Mitoxantrone HCl]
41.1

Request - read-out Ki | tested on AC8-Nt/CaM (Homo sapiens, UniProt P0DP23) | compound "CCCCCCCCOc1ccccc1C(=O)Nc1ccc(C(=O)OCC[N+](C)(CC)CC)cc1"
6.3
